Would you mind telling me the reported inhibition at 25 µM of each entry?
- ASSAY_METHOD_TEXT: Cytotoxicity towards healthy cell line
- Type: cell-based, monkey
- COND: monkey, COS-7 kidney cells; COS7; 25 μM; read-out: % of Inhibition (cytotoxic screening)
// return numeric value only (unit: %, not printed)

Documented inhibition at 25 µM of "Cn1cccc1/C=C/C(=O)/C=C(O)/C=C/c1cccn1C" : 100

Consider "COc1cc(/C=C/C(=O)CC(=O)/C=C/c2ccc(O)c(OC)c2)ccc1O" . Its measured inhibition at 25 µM is 71.6

Sure, the documented inhibition at 25 µM for "O=C(/C=C(O)/C=C/c1cccs1)/C=C/c1cccs1" is 0

Measured inhibition at 25 µM of "O=C(/C=C(O)/C=C/c1ccco1)/C=C/c1ccco1" : 46.2

* * *

- Test system: MCF-7 (human mammary adenocarcinoma)
- ASSAY_METHOD_TEXT: Cytotoxicity, sulforhodamine B (SRB) microculture assay
- Type: cell-based
- Method: The cytotoxicity of all compounds was tested against six cancer cell lines: U251 (human glioblastoma cell line), PC-3 (human prostate adenocarcinoma), K562 (human chronic myelogenous leukemia), HCT-15 (human colon adenocarcinoma), MCF-7 (human mammary adenocarcinoma), and SKLU-1 (human lung adenocarcinoma). Cell lines were supplied by the U.S. National Cancer Institute (NCI). […]
PARAMETER: pIC50
In simple prose, pIC50 is minus the logarithm base ten of a concentration in moles per litre.

// pIC50 (MCF-7 (human mammary adenocarcinoma)) for "Cn1cccc1/C=C/C(=O)C=C([O-])/C=C/c1cccn1C.Cn1cccc1/C=C/C(=O)C=C([O-])/C=C/c1cccn1C.[Cu+2]" = 4.97

* * *

I'd appreciate it if you could supply inhibition at 25 µM values for the items below.
- Tested on: K562 (human chronic myelogenous leukemia)
- ASSAY_METHOD_TEXT: Cytotoxicity, sulforhodamine B (SRB) microculture assay
- Assay type: cell-based
- COND: Homo sapiens, 25 μM, read-out: % of Inhibition (cytotoxic screening)
Write down the numeric answer in % and omit the unit.

# inhibition at 25 µM (compound: O=C(/C=C(O)/C=C/c1cccs1)/C=C/c1cccs1 [ThiopheneCurc, Thiophenecurcumin] ) is 4.4

Reported inhibition at 25 µM ( COc1cc(/C=C/C(=O)CC(=O)/C=C/c2ccc(O)c(OC)c2)ccc1O [Curc, Curcumin] ) = 80.1

Notebook: Cn1cccc1/C=C/C(=O)/C=C(O)/C=C/c1cccn1C [N-methyl-pyrCurc, N-methylpyrrolcurcumin] , inhibition at 25 µM read as 65.8

Value of measured inhibition at 25 µM for the entry O=C(/C=C(O)/C=C/c1ccco1)/C=C/c1ccco1 [FuranCurc, Furancurcumin] : 6.4

* * *

- System: U251 (human glioblastoma cell line)
- ASSAY_METHOD_TEXT: Cytotoxicity, sulforhodamine B (SRB) microculture assay
- Type: cell-based
- COND: Homo sapiens, U-251, 25 μM, read-out: % of Inhibition (cytotoxic screening)
Would you kindly list inhibition at 25 µM for each of these molecules?
I only need the number, in %, no unit after it.

# inhibition at 25 µM of "COc1cc(/C=C/C(=O)CC(=O)/C=C/c2ccc(O)c(OC)c2)ccc1O" = 67.1

Please fill in: inhibition at 25 µM reported for "O=C(/C=C(O)/C=C/c1cccs1)/C=C/c1cccs1" = 0

inhibition at 25 µM reported for this molecule "Cn1cccc1/C=C/C(=O)/C=C(O)/C=C/c1cccn1C" : 52.8

Entry "O=C(/C=C(O)/C=C/c1ccco1)/C=C/c1ccco1" — recorded inhibition at 25 µM = 0

Attribution: paper PMC9919861
